Provenance of the data: patent US9302993B2

Assay: Pharmacokinetic profile, IV and oral (Assay 16)
Assay type: in vivo
Conditions: rat, plasma, iv, 2 mg/Kg, IV, Mean ± SD, read-out: Cltotal (mL/min/Kg), total plasma clearance
recordedEndpoint: clearance (mL/min/kg)
Output spec: scalar in mL/min/kg, unitless text.

response.value for CCNCc1ccc2c(Cl)cc(Cl)c(O)c2n1.Cl [compound 1051] (field: clearance) = 144

* * *

Target: hydrogen peroxide generation by Aβ in the presence of copper (Homo sapiens)
Construct: The reaction solutions contained Aβ 1-42 at concentrations in the range of 50 nM to 1 μM
Sequence (P05067 672-713 limits assumed): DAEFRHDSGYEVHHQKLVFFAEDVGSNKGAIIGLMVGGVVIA
Assay: Fluorometric H2O2 assay (Assay 1)
Format: biochemical
Settings: Aβ 1-42 with Cu-Gly, DCF/HRP, 37 C 60 min; several values in one cell = repeat determinations; read-out: Peroxide IC50
Listing: IC50 of selected molecules
// note: answer is a bare numeric in µM

Look over these answered cases.
1) CSc1ccccc1-c1ccc2cccc(O)c2n1
2.4
2) O=C(O)C1OC(Oc2cccc3cccnc23)[C@H](O)[C@@H](O)[C@H]1O (stereo partly shown)
90
3) CN(c1ccccn1)c1ccc2c(Cl)cc(Cl)c(O)c2n1
0.69
4) O=C(NCCc1c[nH]cn1)c1ccc2cccc(O)c2n1
0.19
5) Oc1cccc2ccc(CNCCc3c[nH]cn3)nc12
0.42
6) O=S(=O)(O)c1ccc2cccc(O)c2n1
90
7) Oc1c(-c2ccccc2F)cc(-c2ccccc2F)c2cccnc12
3.2
8) CO/N=C/c1ccc2c(Cl)cc(Cl)c(O)c2n1
1

The molecule "Cn1cnc(CCNC(=O)c2ccc3c(Cl)cc(Cl)c(O)c3n2)c1" showed IC50 equal to 0.28

// field: IC50; key: "CC(=O)NC(=O)c1ccc2cccc(O)c2n1" ; value = 0.27
